# System: 519858-162-T-J1-PDC complex spheroid viability
# procedure.details: Anticancer human tumor 519858-162-T-J1-PDC patient-derived colon adenocarcinoma cell line growth inhibition [GQUAD]
# condition: compound 1 µM; hits give low values
Form field: viability, T/C (one value per entry).

The value of viability, T/C recorded for Nc1ccn(C2OC(CO)C(O)C2(F)F)c(=O)n1 (centres undefined) when tested on 519858-162-T-J1-PDC complex spheroid viability reads 94.6%

Measured on 519858-162-T-J1-PDC complex spheroid viability, `O=c1[nH]cc(F)c(=O)[nH]1` has a documented viability, T/C of 107%

Form: item `Cc1cnc(CNC(=O)c2c(=O)c3ccc(N4CCCN(C)CC4)nc3n3c2sc2ccccc23)cn1` ; test system 519858-162-T-J1-PDC complex spheroid viability; viability, T/C: 69.1% [middle of 10 runs]

Here `CCCS(=O)(=O)Nc1ccc(F)c(C(=O)c2c[nH]c3ncc(-c4ccc(Cl)cc4)cc23)c1F` was tested on 519858-162-T-J1-PDC complex spheroid viability, and its viability, T/C came to 97.1%

====

# Test system: 519858-162-T-J1-PDC complex spheroid viability
# procedure.details: Anticancer human tumor 519858-162-T-J1-PDC cell line growth inhibition [GQUAD];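 note: spheroids exposed to compounds for 7 days; 100% = DMSO vehicle control viability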
# condition: second compound 10 µM; first compound 0.316 µM; hits give low values
Examples of molecules with documented viability, T/C follow.
Value expressed in %; do not type the unit.

Here's what some known entries look like.
molecule="C=CC(=O)N1CCN(c2nc(=O)n(-c3c(C)ccnc3C(C)C)c3nc(-c4c(O)cccc4F)c(F)cc23)C(C)C1 (stereo unspecified) + Cc1[nH]c2ccc(F)cc2c1-c1nc2c3cccnc3c3ncccc3c2[nH]1" unit_of_measurement=% observed_measurement=65.6
molecule="O=c1[nH]cc(F)c(=O)[nH]1 + Cc1[nH]c2ccc(F)cc2c1-c1nc2c3cccnc3c3ncccc3c2[nH]1" unit_of_measurement=% observed_measurement=59.6
molecule="CC1COCCN1c1cc(C2(S(C)(=N)=O)CC2)nc(-c2ccnc3[nH]ccc23)n1 (stereo unspecified) + Cc1cnc(CNC(=O)c2c(=O)c3ccc(N4CCCN(C)CC4)nc3n3c2sc2ccccc23)cn1" unit_of_measurement=% observed_measurement=62.2
molecule="O=C(NO)c1cnc(N2CCN(S(=O)(=O)c3ccc4ccccc4c3)CC2)nc1 + Cc1[nH]c2ccc(F)cc2c1-c1nc2c3cccnc3c3ncccc3c2[nH]1" unit_of_measurement=% observed_measurement=36.7
molecule="CC1COCCN1c1cc(C2(S(C)(=N)=O)CC2)nc(-c2ccnc3[nH]ccc23)n1 (stereo unspecified) + CN(C)c1ccc(Nc2c3ccc(NC(=O)CCN4CCCC4)cc3nc3cc(NC(=O)CCN4CCCC4)ccc23)cc1" unit_of_measurement=% observed_measurement=82.8
molecule="COc1ccc([C@@H](O)c2cc(-c3ncnc4cc(N5CCOCC5)ccc34)c(F)cc2Cl)nn1 + CN(C)c1ccc(Nc2c3ccc(NC(=O)CCN4CCCC4)cc3nc3cc(NC(=O)CCN4CCCC4)ccc23)cc1" unit_of_measurement=% observed_measurement=73.4
molecule="C=CCn1c(=O)c2cnc(Nc3ccc(N4CCN(C)CC4)cc3)nc2n1-c1cccc(C(C)(C)O)n1 + Cc1cnc(CNC(=O)c2c(=O)c3ccc(N4CCCN(C)CC4)nc3n3c2sc2ccccc23)cn1" unit_of_measurement=% observed_measurement=51.6
molecule="COc1ccc([C@@H](O)c2cc(-c3ncnc4cc(N5CCOCC5)ccc34)c(F)cc2Cl)nn1 + Cc1cnc(CNC(=O)c2c(=O)c3ccc(N4CCCN(C)CC4)nc3n3c2sc2ccccc23)cn1" unit_of_measurement=% observed_measurement=49.3

Documented viability, T/C of Cc1[nH]c2ccccc2c1CCNCc1ccc(/C=C/C(=O)NO)cc1 + Cc1[nH]c2ccc(F)cc2c1-c1nc2c3cccnc3c3ncccc3c2[nH]1 : 43.2

# molecule CC[C@@]1(O)C(=O)OCc2c1cc1n(c2=O)Cc2cc3c(CN(C)C)c(O)ccc3nc2-1 + Cc1[nH]c2ccc(F)cc2c1-c1nc2c3cccnc3c3ncccc3c2[nH]1 ; its viability, T/C = 60

// sample CC1COCCN1c1cc(C2(O)CC3CCC(C2)O3)c2cnn(-c3ccn[nH]3)c2n1 (stereo unspecified) + Cc1cnc(CNC(=O)c2c(=O)c3ccc(N4CCCN(C)CC4)nc3n3c2sc2ccccc23)cn1 , its viability, T/C was 37.7
